- System: SF-295 CNS
- Assay protocol: NCI-60 one-dose screen, 48 h (100 = growth as untreated, 0 = no growth, -100 = all killed)
- Experimental setup: 10 µM
Compounds without any hit were thinned out: in the full panel of roughly 83,000, 20% have a hit.
Readout name: growth (%)
Form entry: value (%) — number only.

A selection of reference data follows.
Task item: For the compound shown here, CN1CCN(c2ccc3nc(-c4ccc5nc(-c6ccc(O)cc6)[nH]c5c4)[nH]c3c2)CC1 , give the reported growth.
Reply: 96.3

Task item: Queued: S=c1[nH]nc(Cc2ccccc2)c(=S)[nH]1
Reply: 99.8

Task item: Queued: BrC/C=C/C[P+](c1ccccc1)(c1ccccc1)c1ccccc1
Reply: 38.2

Task item: Queued: CCCCCCCCCCCCCCCCCN
Reply: 99.1

Task item: Queued: Nc1ccc2cc(Br)c3ccccc3c2c1
Reply: 21

Task item: Queued: Cc1cc(NCCCN(C)C)c2ccc3c(ccc4c(NCCCN(C)C)cc(C)nc43)c2n1
Reply: -76.2

Task item: Queued: CSc1ccc2c(c1)C(N1CCN(C)CC1)Cc1ccccc1S2 (centres undefined)
Reply: 44.1

Task item: Queued: N#C/C(=C1C=C/C(=N\O)C(Cl)=C\1)c1ccccc1
Reply: -32.2

Now for the compound whose growth we want.
Task item: For the compound shown here, CN(C)CCC(=O)c1c[nH]c2ccccc12 , give the reported growth.
Reply: 99.7
